- experimental-details: Drug level in Solanum lycopersicum (tomato) roots measured 15 days post dose following field application at 1 and 2 kg of active ingredient/hectare
- Assay type: ADME, Root
- stated-conditions: other: field application, read-out: Drug uptake

{"molecule": "CCOP(=S)(OCC)SCSCC [PHORATE]", "concentration at 360 h": "1690 ng/g"}

---

- experimental-details: in vivo
- stated-conditions: solanum lycopersicum, shoots, other: field application
reported-metric: Cmax at 1080 h (ng/g)

{"compound": "CCCCN(CCCC)SN(C)C(=O)Oc1cccc2c1OC(C)(C)C2 [CARBOSULFAN]", "reported-result": 31600}

---

- experimental-details: Drug level in Cicer arietinum (chickpea) green seeds measured 90 days post dose following field application at 1 kg of active ingredient/hectare
reported-metric: concentration at 2160 h (ng/g)

{"smiles-repr": "CCOP(=S)(OCC)Oc1ncn(-c2ccccc2)n1", "units-text": "ng/g", "reported-result": 11}

---

- experimental-details: Drug level in Cicer arietinum (chickpea) green seeds measured 90 days post dose following field application at 2 kg of active ingredient/hectare
- stated-conditions: green seeds
Parameter: concentration at 2160 h. Scope: all listed entries.

{"molecule": "CCOP(=O)(SC(C)CC)SC(C)CC (configuration not stated)", "concentration at 2160 h / ng/g": 16}
{"molecule": "CCOP(=S)(OCC)SCSCC [PHORATE]", "concentration at 2160 h / ng/g": 56}
